# System: T1, IL-7 receptor (IL-7Rα/γc heterodimer) on primary human T cells (human, UniProt P16871 21-459; P31785 23-369)
# T1 sequence (looked up) 1: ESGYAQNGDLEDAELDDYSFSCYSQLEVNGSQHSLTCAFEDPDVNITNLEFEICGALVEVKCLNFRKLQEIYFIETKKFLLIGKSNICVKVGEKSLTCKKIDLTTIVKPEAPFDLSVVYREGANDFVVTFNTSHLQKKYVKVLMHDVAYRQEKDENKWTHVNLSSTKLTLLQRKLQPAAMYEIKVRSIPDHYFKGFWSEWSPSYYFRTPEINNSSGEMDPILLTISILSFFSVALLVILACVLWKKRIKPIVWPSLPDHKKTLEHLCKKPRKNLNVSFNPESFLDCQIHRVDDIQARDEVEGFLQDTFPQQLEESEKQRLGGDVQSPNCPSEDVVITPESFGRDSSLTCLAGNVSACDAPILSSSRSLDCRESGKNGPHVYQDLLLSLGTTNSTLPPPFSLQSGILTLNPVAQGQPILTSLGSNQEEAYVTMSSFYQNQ
# T1 sequence (looked up) 2: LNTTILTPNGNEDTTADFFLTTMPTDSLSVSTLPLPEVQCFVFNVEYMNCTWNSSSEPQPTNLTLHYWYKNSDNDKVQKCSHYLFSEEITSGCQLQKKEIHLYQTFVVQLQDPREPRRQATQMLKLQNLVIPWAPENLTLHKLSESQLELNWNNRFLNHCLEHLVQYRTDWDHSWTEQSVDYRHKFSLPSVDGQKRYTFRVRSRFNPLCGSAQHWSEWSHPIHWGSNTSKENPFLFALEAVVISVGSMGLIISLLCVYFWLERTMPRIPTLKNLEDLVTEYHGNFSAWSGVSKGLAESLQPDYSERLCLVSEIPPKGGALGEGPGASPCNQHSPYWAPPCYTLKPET
# Protocol: cell-based or functional assay
[ ]: non-standard residue; d: D form. hSer = N[C@@H](CCO)C(=O)O; Nle = CCCC[C@H](N)C(=O)O
Reported metric: EC50 pSTAT5, CD4 Memory (pM)

# Binder, Readout units, Result value
measured = [
    ("CMP-036, synthetic IL-7 of SEQ ID NO: 3 (no N-terminal conjugation handle) (ligand, ends and bridges not checked) DCDIEGKDGKQYESVL[Nle]VSIDQLLDS[Nle]KEIGSNCL[hSer]NEFNFFKRHICDANKEG[Nle]FLFRAARKLRQFLK[Nle]NSTGDF[hSer]LHLLKVSEGTTILLNCTGQVKGRKPAALGEAQPTKSL[hSer]ENKSLKEQKKLNDLCFLKRLLQEIKTCWNKIL[Nle]GTKEH", "pM", 5),
]
